As shown below, each of these molecules has a reported TGI value.
Tested on: NCI/ADR-RES ovarian
Experimental protocol: NCI tumour cell line growth inhibition, 48 h

Known results for molecules:
- CO/C(N)=C(\C#N)N=Cc1ccc2ccccc2c1: > 100 µM
- O=C1NC(=NCc2ccccc2Cl)S/C1=C\c1ccc2ncccc2c1: > 25 µM

input: Form field: TGI recorded for CC(C)=CCc1cc2c(cc1O)C1=C(C(=O)C3=C(C1=O)S(=O)(=O)CCN3)C(C=C(C)C)O2 (stereo unspecified) with NCI/ADR-RES ovarian (enter value)
output: 16.7 µM

input: Test system NCI/ADR-RES ovarian; read-out TGI; what value for CCN(CC)CCCNc1c2c(Cl)cc(Cl)cc2nc2nc(=O)[nH]c(C)c12 ?
output: > 100 µM

input: Query for NCI/ADR-RES ovarian: what TGI does the record show for CC(C)C1CNC(=O)C2(C=NC(C(C)C)CNC(=O)C3(C=N1)CCCO3)CCCO2 (stereo unspecified) ?
output: > 10 µM

input: Hello, I am looking for reported TGI with NCI/ADR-RES ovarian for COC(=O)NC1C(C)OC(OC2C/C=C(/C)C3C=CC4C(OC5CC(OC6CCC(OC7CC(O)C(OC8CCC(O)C(C)O8)C(C)O7)C(C)O6)C(OC(C)=O)C(C)O5)C(C)CC(C)C4C3(C)/C(O)=C3/C(=O)OC4(CC(C=O)=CC(O)C4/C=C\2C)C3=O)CC1(C)[N+](=O)[O-] (stereo unspecified) . Could you help?
output: 26.3 µM

input: Return TGI measured with NCI/ADR-RES ovarian given this molecule: O=NN1C(c2ccccc2)CNC(=O)CC1c1ccccc1 (stereo unspecified)
output: > 64.6 µM

input: Lab note: need TGI for NS(=O)(=O)c1ccc(Nc2cc(-c3ccc(O)c(F)c3)[nH]n2)cc1 on NCI/ADR-RES ovarian, anyone have it?
output: > 25 µM

input: Test system NCI/ADR-RES ovarian; read-out TGI; what value for Clc1ccc(Nc2nnc(CNc3ccc(-c4nnc(Nc5ccc(Cl)cc5)s4)cc3)s2)cc1 ?
output: > 100 µM

input: Form entry - test system: NCI/ADR-RES ovarian; read-out: TGI; molecule: COc1cc(CNCCCCCCN2C(=O)c3cccc4cccc(c34)C2=O)ccc1O
output: 32.9 µM

input: Observed TGI on NCI/ADR-RES ovarian for O=C1NC2NC3NC(=O)NC3NC2N1 (stereo unspecified) , please.
output: > 100 µM

input: Write down the reported TGI of Cc1ccccc1N=Nc1c(O)ccc2ccccc12 , test system: NCI/ADR-RES ovarian.
output: > 100 µM

input: Please provide the recorded TGI for CCOC1OC(CO)C(O)CC1n1ccc(=O)[nH]c1=O (stereo unspecified) , tested on NCI/ADR-RES ovarian.
output: > 100 µM

input: Form: Entry = Clc1nccc2c(-c3csc(-c4c[nH]c5ccc(Br)cc45)n3)c[nH]c12 | System = NCI/ADR-RES ovarian | TGI = ____
output: 10.7 µM

input: Hello, I am looking for reported TGI with NCI/ADR-RES ovarian for Cc1ccc(S(=O)c2cccs2)cc1 (stereo unspecified) . Could you help?
output: > 100 µM

input: What is its TGI for NCI/ADR-RES ovarian? Entry: COc1ccc(C(O)c2cc3c(N)c(C(=O)Nc4ccc(Cl)cc4)sc3nc2C)cc1 (stereo unspecified)
output: 28 µM

###

The following molecules are listed with their measured TGI values.
System: HL-60(TB) leukemia
Experimental protocol: NCI tumour cell line growth inhibition, 48 h

* O=[N+]([O-])c1ccc(SN=S=NSc2cccc(SN=S=NSc3ccc([N+](=O)[O-])cc3)c2)cc1 | 83.7 µM
* O=C1CN(c2ccccc2)Cc2nc(Cl)ccc2N1 | > 100 µM
* CO[C@H]1C[C@@H]2CC[C@@H](C)[C@@](O)(O2)C(=O)C(=O)N2CCCC[C@H]2C(=O)O[C@H]([C@H](C)C[C@@H]2CC[C@@H](OC(=O)C(C)(CO)CO)[C@H](OC)C2)CC(=O)[C@H](C)/C=C(\C)[C@@H](O)[C@@H](OC)C(=O)[C@H](C)C[C@H](C)\C=C/C=C/C=C/1C | > 10 µM

input: Using the record for CCOC(=O)[C@@H](C)C[C@H](Cc1ccccc1)NC(=O)c1csc([C@@H](C[C@H](C(C)C)N(C)C(=O)[C@@H](NC(=O)[C@H]2CCCCN2C)C(C)(C)CC)OC(C)=O)n1 , report its TGI.
output: 0.0034 µM

input: Endpoint output: TGI of S=c1sc2c(s1)SC(c1ccccc1)CS2 (configuration not stated) . Value?
output: > 100 µM

input: Bench note: what TGI did COc1cc2ccc3c4ccccc4cnc3c2cc1OC show?
output: > 100 µM

###

Catalogue of TGI values
Tested on: HCT-116 colon
Experimental protocol: NCI tumour cell line growth inhibition, 48 h

Here is how some compounds turned out for TGI.
* COC1(CC[C@@H](C)COC2OC(CO)C(O)C(O)C2O)O[C@H]2C[C@H]3[C@@H]4CC=C5C[C@@H](OC6OC(CO)C(OC7OC(C)C(O)C(O)C7O)C(O)C6OC6OC(C)C(O)C(O)C6O)CC[C@]5(C)[C@H]4CC[C@]3(C)[C@H]2[C@@H]1C (stereo partly specified) | 10.4 µM
* c1cc(N[C@@H]2CCNC2)nc(-c2cnc3ccc(-c4cn[nH]c4)cn23)c1 | > 100 µM
* Cc1ccc(NC(=O)CCc2nc(=S)[nH][nH]2)cc1 | > 100 µM
* OCC1O[C@H](O[C@@H]2CCCN3CC(O)C(O)[C@@H]23)C(O)C(O)C1O (stereo partly specified) | > 100 µM

input: Quick check: TGI of C/C(=N\O)c1ccc2ccc3ccccc3c2c1 ?
output: > 100 µM

input: Consider the compound O=C1CC(c2c[nH]c3ccc(F)cc23)C(=O)N1 (stereo unspecified) and give its measured TGI.
output: > 100 µM

input: Suppose we examine the compound c1ccc(-c2oc(-c3ccccc3)c(CN3CCCCC3)c2CN2CCCCC2)cc1 ; what TGI value has been reported?
output: 11.2 µM

input: Entry NC1NC=NC2C1N=CN2C1OC(CO)C2[O][Sn][O]C21 (stereo unspecified) has what TGI?
output: > 100 µM

input: Fill in: TGI of CC1=NN(c2nc(N)nc(NS(=O)(=O)c3cc(C)c(Cl)cc3S)n2)C(C)(C)C1 is ___
output: > 10 µM

input: Could you share which TGI value was measured for COc1cccc2c1-c1nc(N)c3c(OC)cccc3c1C2=O ?
output: > 100 µM

input: Using the record for Cc1c(O)c(=O)ccn1CCN , report its TGI.
output: > 100 µM

###

Tested on: HOP-92 NSCLC
Experimental protocol: NCI tumour cell line growth inhibition, 48 h; in the data active means GI50 below about 0.43 µM; inactive means the rest
Please reply with one of these outcomes: Yes = active, No = inactive

- COc1ccc(C(O)c2cc3c(N)c(C(=O)Nc4ccc(Cl)cc4)sc3nc2C)cc1 (stereo not given): No
- COc1ccc2nc3cc(Cl)ccc3c(NCCCNCCO)c2c1: No
- O=C(Nc1ccc(Oc2ccc3nc(NC(=O)c4ccco4)[nH]c3c2)cc1)Nc1cc(C(F)(F)F)ccc1F: Yes
- NS(=O)(=O)c1ccc(Nc2cc(-c3ccc(O)c(F)c3)[nH]n2)cc1: No

API: the following record is the query input.
input: Please indicate how the test categorized C#Cc1cccc(Nc2ncnc3cc(NC(=O)CCl)ccc23)c1 .
output: No

###

System: SNB-19 CNS
Experimental protocol: NCI tumour cell line growth inhibition, 48 h
Documented TGI across a set of molecules

Some solved entries appear below for comparison.
• O=C1/C(=C/c2ccc(Cl)c(Cl)c2)CN(C(=O)C(Cl)Cl)C/C1=C\c1ccc(Cl)c(Cl)c1 = 0.306 µM
• c1ccc(-c2oc(-c3ccccc3)c(CN3CCCCC3)c2CN2CCCCC2)cc1 = 8.72 µM
• CC1(C)CCN2C(=O)C34CCCC3CC21S4 (configuration not stated) = > 100 µM

input: Form field: reported TGI of NC1NC=NC2C1N=CN2C1OC(CO)C2[O][Sn][O]C21 (configuration not stated)
output: > 100 µM

input: Look up TGI for this molecule: Nc1nc2c(N)cc(C(F)(F)F)cc2nc1-c1ccccc1
output: > 100 µM

input: So what does the record say about TGI for COc1cnc2c(c1)C(=O)c1c-2n(CCCNC2=NCCS2)c(=O)c2cc(F)ccc12 ?
output: 2.61 µM

input: // TGI lookup, key: CSc1ncnc2c1cnn2Cc1cn(COCCO)nn1
output: > 100 µM

input: If you can, please state the reported TGI value of CC(C)OC(=O)c1ccc(NCc2cc(O)ccc2O)cc1 .
output: > 68.7 µM

input: # get_value(readout='TGI', item= COC(=O)C1(NC(=O)C(Cc2ccccc2)N(C(=O)OC(C)(C)C)C(=O)OC(C)(C)C)CCCC1 (configuration not stated) )
output: > 100 µM

input: Tell me the measured TGI of O=C1N=C2SC=C(NC(=S)Nc3ccccc3)N2NC12c1ccccc1-c1ccccc12 , please.
output: > 10 µM

input: Quick one: TGI of COC(=O)C(=O)Cc1nc2ccccc2s1 ?
output: > 100 µM

input: Returns the measured TGI for the input molecule. Input: Cc1ccc(/C=C2\Sc3scc(-c4ccccc4)[n+]3C2=O)cc1
output: > 72 µM

input: Fill in: TGI of O=c1[nH]nc(Cc2ccccc2)n1/N=C/c1cccs1 is ___
output: > 100 µM

input: Quick check: TGI of Cc1ccc(S(=O)c2cccs2)cc1 (configuration not stated) ?
output: > 100 µM

input: Record request: TGI value, item COc1ccc2nc3cc(Cl)ccc3c(NCCCNCCO)c2c1
output: 3.79 µM
